Assayed target: Melatonin receptor type 1C (Xenopus laevis) (UniProt P49219)
Sequence (P49219 whole entry): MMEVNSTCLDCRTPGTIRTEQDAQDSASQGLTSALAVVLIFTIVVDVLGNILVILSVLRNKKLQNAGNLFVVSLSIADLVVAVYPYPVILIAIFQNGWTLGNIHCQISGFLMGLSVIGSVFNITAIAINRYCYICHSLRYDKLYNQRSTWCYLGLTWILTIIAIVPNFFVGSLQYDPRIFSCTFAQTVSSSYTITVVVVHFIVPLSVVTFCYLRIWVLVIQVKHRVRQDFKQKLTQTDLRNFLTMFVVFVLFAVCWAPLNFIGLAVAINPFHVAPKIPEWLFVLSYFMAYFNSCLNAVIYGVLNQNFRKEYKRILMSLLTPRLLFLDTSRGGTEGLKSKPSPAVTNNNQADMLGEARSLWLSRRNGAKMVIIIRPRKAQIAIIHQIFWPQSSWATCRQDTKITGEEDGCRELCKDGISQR
Assay info: Agonist activity at Melatonin receptor type 1C in Xenopus laevis melanophores assessed as induction of pigment aggregation response by microtiter plate reader based absorbance detection assay relative to melatonin
So basically: Efficacy at 90% or higher? That is label 1. Lower than 90%? That is label 0.

Say whether CCC(=O)NCCc1cc(OC)ccc1F shows Efficacy of 90% or more.
label 1

Also check COc1ccc(F)c(C(C)(C)CNC(C)=O)c1
label 1

Thanks! And CCC(=O)NCc1ccc(F)c(OC)c1 ?
label 0

How about this molecule: COc1ccc(F)c(CCNC(C)=O)c1
label 1

Try CCC(=O)NCC(C)(C)c1ccc(F)c(OC)c1 next.
label 1

Now consider CCCC(=O)NCC(C)(C)c1ccc(F)c(OC)c1 .
label 1

How about this molecule: CCCC(=O)NCCc1ccc(F)c(OC)c1
label 1

Now consider CCCC(=O)NCc1ccc(F)c(OC)c1 and answer again.
label 0

Item: CCC(=O)NCC(C)(C)c1ccc(OC)c(F)c1
label 1

Would you mind doing COc1ccc(CCNC(C)=O)cc1F as well?
label 0

Another molecule to look at: CCCC(=O)NCC(C)(C)c1ccc(OC)c(F)c1
label 1
